- Tested on: HDQ-P1 (Breast Carcinoma)
- measurement notes: Bliss excess, mean over the matrix (fraction); higher = more synergy
We begin with a simple list: items and their reported Bliss excess.
API note: the answer field is a bare number with no unit suffix.

// worked examples, Bliss excess included
>  <molecule>
CN(C)CCCOc1ccc(-c2ccc3ncc4c(c3c2)n(C2CCOCC2)c(=O)n4C)cn1 [AZD0156] + C[C@@H]1COCCN1C2=NC(=NC(=C2)C3(CC3)[S@](=N)(=O)C)C4=C5C=CNC5=NC=C4 [AZD6738] (first compound max 1 µM, 7x7, partner max 10 µM)

>  <Bliss excess>
0.0214

$$$$
>  <molecule>
CN(CCO)CC[C@H](CSc1ccccc1)Nc1ccc(S(=O)(=O)NC(=O)c2ccc(N3CCC([C@@H](O)c4ccccc4-c4ccc(Cl)cc4)CC3)cc2)cc1S(=O)(=O)C(F)(F)F [AZD4320] + Cc1cc2ncnn2cc1Nc1ncc2c(n1)n(C1CCOCC1)c(=O)n2C [AZD7648] (first compound max 1 µM, 7x7, partner max 10 µM)

>  <Bliss excess>
-0.0085

$$$$

Now for another entry.
Exercise: Name the reported Bliss excess value associated with the molecule CN(C)CCCOc1ccc(-c2ccc3ncc4c(c3c2)n(C2CCOCC2)c(=O)n4C)cn1 [AZD0156] + CCN(CCO)CCCOc1ccc2c(Nc3cc(CC(=O)Nc4cccc(F)c4)[nH]n3)ncnc2c1 [AZD2811] (first compound max 1 µM, 7x7, partner max 1 µM)
Solution: -0.0634

----------
- Test system: GR-ST (B-Lymphoblastic Leukemia)
- measurement notes: Bliss excess, mean over the matrix (fraction); higher = more synergy
measurement type: Bliss excess

Below, each entry is followed by its recorded Bliss excess result.
>  <molecule>
C=CCn1c(=O)c2cnc(Nc3ccc(N4CCN(C)CC4)cc3)nc2n1-c1cccc(C(C)(C)O)n1 [AZD1775] + O=C(c1cc(Cc2n[nH]c(=O)c3ccccc23)ccc1F)N1CCN(C(=O)C2CC2)CC1 [Olaparib] (first compound max 1 µM, partner max 10 µM)

>  <Bliss excess>
-0.0334

$$$$
>  <molecule>
CC1(C)CCC(CN2CCN(c3ccc(C(=O)NS(=O)(=O)c4ccc(NCC5CCOCC5)c([N+](=O)[O-])c4)c(Oc4cnc5[nH]ccc5c4)c3)CC2)=C(c2ccc(Cl)cc2)C1 [Venetoclax] + C[C@@H]1COCCN1C2=NC(=NC(=C2)C3(CC3)[S@](=N)(=O)C)C4=C5C=CNC5=NC=C4 [AZD6738] (first compound max 1 µM, 7x7, partner max 10 µM)

>  <Bliss excess>
-0.2

$$$$

Let us examine a further case.
Exercise: I'd like to know its Bliss excess. The molecule in question is COc1cc2ncnc(Nc3ccc(F)c(Cl)c3)c2cc1OCCCN1CCOCC1 [Gefitinib] + CC(C)n1c(=O)n(C)c2cnc3cc(F)c(-c4ccc(OCCCN5CCCCC5)nc4)cc3c21 [AZD1390] (first compound max 10 µM, 7x7, partner max 0.3 µM)
Solution: -0.0303

----------
- System: KYSE-180 (Esophageal Squamous Cell Carcinoma)
- measurement notes: combination Emax (second highest fraction inhibited in the dose matrix, 72 h); higher = more inhibition; extreme values may be limits of the assay
measurement type: combination Emax
Give your answer as a number; write no unit.

Check out these entries, answers already filled in.
>  <compound>
CCN(CCO)CCCOc1ccc2c(Nc3cc(CC(=O)Nc4cccc(F)c4)[nH]n3)ncnc2c1 [AZD2811] + C=CCn1c(=O)c2cnc(Nc3ccc(N4CCN(C)CC4)cc3)nc2n1-c1cccc(C(C)(C)O)n1 [AZD1775] (first compound max 1 µM, partner max 1 µM)

>  <combination Emax>
0.726

$$$$
>  <compound>
CN(C)CCCOc1ccc(-c2ccc3ncc4c(c3c2)n(C2CCOCC2)c(=O)n4C)cn1 [AZD0156] + C=CCn1c(=O)c2cnc(Nc3ccc(N4CCN(C)CC4)cc3)nc2n1-c1cccc(C(C)(C)O)n1 [AZD1775] (first compound max 1 µM, partner max 1 µM)

>  <combination Emax>
0.749

$$$$
>  <compound>
C[C@@H](c1ccc2nccn2c1)n1nnc2ncc(-c3cnn(C)c3)nc21 [Savolitinib] + CN(CC[C@H](CSC1=CC=CC=C1)NC2=C(C=C(C=C2)S(=O)(=O)NC(=O)C3=CC=C(C=C3)N4CCC(CC4)[C@H](C5=CC=CC=C5C6=CC=C(C=C6)Cl)O)S(=O)(=O)C(F)(F)F)CCO [AZD4320] (first compound max 1 µM, 7x7, partner max 1 µM)

>  <combination Emax>
0.13

$$$$

Continue with the next compound.
Exercise: Any idea what its combination Emax is? The compound is COc1cccc(OCCCN)c1-c1cc(Nc2cnc(C#N)cn2)n[nH]1 [Prexasertib] + Cc1cc2ncnn2cc1Nc1ncc2c(n1)n(C1CCOCC1)c(=O)n2C [AZD7648] (first compound max 1 µM, 7x7, partner max 10 µM)
Solution: 0.974
